system: MKL-1; assay: qHTS assay to identify novel small-molecules to repurpose for Merkel cell carcinoma treatment (AID 1296009); settings: MCC and control cell lines, CellTiter-Glo viability, 72 h; series mostly up to 46 µM; also: nearly all actives have a fitted effect of over 60% in size
Results filed as inconclusive are left out. Activity calls are given as the source filed them. Calls follow the shape of the dose curve; as a rule, active = well fitted inhibition curve with a large enough effect; inconclusive = small, poorly fitted or top-dose-only effect; inactive = flat fitted curve, though single readings scatter.
Pick one and only one: 1 = active, -1 = inactive

Solved cases (3 shown):
1. O=C1CC2(CCCC2)CC(=O)N1CCNCC1COc2ccccc2O1 (stereo unspecified)
-1
2. CN(C)CCCOC1(Cc2ccccc2)CCCCCC1
-1
3. CC(=O)Oc1ccc(C2(c3ccc(OC(C)=O)cc3)Oc3ccccc3NC2=O)cc1
-1

**Query** Each compound tested received a call. Report the one for CC(=O)OCC(=O)Nc1cc(C#N)cc(NC(=O)COC(C)=O)c1Cl .
**Result** -1

**Query** Each compound tested received a call. Report the one for COc1ccc2nc(SCc3ncc(C)c(OC)c3C)[nH]c2c1 .
**Result** -1

**Query** Each compound tested received a call. Report the one for COc1cc(S(N)(=O)=O)cc(C(=O)O)c1OC .
**Result** -1

**Query** Each compound tested received a call. Report the one for CC(=O)CC/C=C(\C)CC/C=C(\C)CC/C=C(\C)CCC=C(C)C .
**Result** -1

**Query** Each compound tested received a call. Report the one for CC[N+](CC)(CC)CCOC(=O)C(C1CCCC1)C1CCCC1 .
**Result** 1

**Query** Each compound tested received a call. Report the one for C=C(C)C(=O)OCC(O)CO (stereo unspecified) .
**Result** -1

**Query** Each compound tested received a call. Report the one for Cc1cccc(N(C)C(=S)Oc2ccc3c(c2)CCC3)c1 .
**Result** -1

**Query** Each compound tested received a call. Report the one for O=C(NN1CCCC1)NS(=O)(=O)c1ccc(Cl)cc1 .
**Result** -1

**Query** Each compound tested received a call. Report the one for CCCC(CCC)(C(=O)OCC)C(=O)OCC .
**Result** -1

**Query** Each compound tested received a call. Report the one for COC(=O)CCCCC(CCSS/C(CCO)=C(\C)N(C=O)Cc1cnc(C)nc1N)SC(C)=O (stereo unspecified) .
**Result** -1

**Query** Each compound tested received a call. Report the one for CC(C)(C)C(=O)OCOC(=O)C1N2C(=O)CC2S(=O)(=O)C1(C)C (stereo unspecified) .
**Result** -1

**Query** Each compound tested received a call. Report the one for CC(Oc1c(Cl)cccc1Cl)C1=NCCN1 (stereo unspecified) .
**Result** -1

**Query** Each compound tested received a call. Report the one for O=C(O)c1[nH]n(-c2ccc(S(=O)(=O)O)cc2)c(=O)c1N=Nc1ccc(S(=O)(=O)O)cc1 .
**Result** -1

----------
experiment: qHTS of pediatric cancer cell lines to identify multiple opportunities for drug repurposing: Primary screen for OHS-50 cells (AID 1347103); conditions: OHS-50 osteosarcoma viability, CellTiter-Glo luminescence, 48 h; series mostly up to 57.3 µM; also: nearly all actives have a fitted effect of over 40% in size
Results filed as inconclusive are left out. Activity calls are given as the source filed them. Calls come from the whole dose curve; as a rule, active = well fitted cell-killing curve with a large enough effect; inconclusive = small, poorly fitted or top-dose-only effect; inactive = no such curve, though single readings can be large or run the other way.
Pick one and only one: active, inactive

Solved cases (3 shown):
1) O=C(Oc1ccccc1)c1ccccc1O
inactive
2) Cc1ccc(C(C)OC(=O)C2(C)CCC(C(=O)O)C2(C)C)cc1 (centres undefined)
inactive
3) Cn1cc(S(C)=O)c(=O)c2ccc(F)cc21 (centres undefined)
inactive

**Query** Each compound tested received a call. Report the one for COC(=O)[C@H]1[C@H]2C[C@@H]3c4[nH]c5cc(OC)ccc5c4CCN3C[C@H]2C[C@@H](OC(=O)/C=C/c2ccc(O)c(OC)c2)[C@@H]1OC .
**Result** active

----------
test system: PA-1; test: Primary qHTS to identify gynecologic anti-cancer compounds using libraries of approved drugs and bioactive compounds (AID 1345084); conditions: Gynecologic cancer cell panel viability, ATPlite luminescence, 48 h; series mostly up to 57.5 µM; also: nearly all actives have a fitted effect of over 55% in size
Results filed as inconclusive are left out. Calls of active or inactive are those of the source. The call rests on the fitted dose curve; in most records, active means well fitted cell-killing curve with a large enough effect; inconclusive means small, poorly fitted or top-dose-only effect, or effect the other way; inactive means flat fitted curve, though single readings scatter.
reported_property: outcome

1. CCCCCCOC(=O)NC(=N)c1ccc(NCc2nc3cc(C(=O)N(CCC(=O)OCC)c4ccccn4)ccc3n2C)cc1
inactive
2. CC(=O)Nc1ccn(C2COC(COC(=O)c3ccccc3)O2)c(=O)n1 (stereo not drawn)
inactive
3. CCOC(=O)CN1CCCC1=O
inactive

----------
biological target: Cytochrome P450 2D6 (Homo sapiens); test: Cytochrome P450 family 2 subfamily D member 6 (CYP2D6) small molecule antagonists: luciferase biochemical (cell-free) qHTS assay (AID 1645840); settings: P450-Glo CYP2D6 enzyme, luciferin luminescence, 1 h; series mostly up to 57.4 µM; also: nearly all actives have a fitted effect of over 55% in size
Inconclusive results are not listed. The source made the active and inactive calls. The call rests on the fitted dose curve; in most records, active means well fitted inhibition curve with a large enough effect in the repeat runs; inconclusive means weak or mixed curves; inactive means flat fitted curve, though single readings scatter.
Pick one and only one: 1 (active), 0 (inactive)

Solved cases (3 shown):
1) OC(CCCN1CCCCC1)(c1ccccc1)c1ccccc1
1
2) CC(CC1c2ccccc2CCc2ccccc21)CN(C)C (stereo not given)
1
3) COc1ccc2c(c1)CCCC2=O
0

**Query** Each compound tested received a call. Report the one for CC(=O)Oc1ccc(C2(c3ccc(OC(C)=O)cc3)Oc3ccccc3NC2=O)cc1 .
**Result** 0

**Query** Each compound tested received a call. Report the one for Oc1ccccc1-c1nnco1 .
**Result** 0

----------
experiment: qHTS of pediatric cancer cell lines to identify multiple opportunities for drug repurposing: Primary screen for NB-EBc1 cells (AID 1347095); conditions: NB-EBc1 neuroblastoma viability, CellTiter-Glo luminescence, 48 h; series mostly up to 46 µM;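 also: plate controls were DMSO neutral control for no effect and bortezomib for full effect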
Results filed as inconclusive are left out. Active and inactive are the calls of the source. Calls come from the whole dose curve; as a rule, active = well fitted cell-killing curve with a large enough effect; inconclusive = small, poorly fitted or top-dose-only effect; inactive = no such curve, though single readings can be large or run the other way.
Pick one and only one: active, inactive

1. O=C(C1CCCCC1)N1CC(=O)N2CCCc3ccccc3C2C1 (stereo not given)
inactive
2. O=C(O)CCCC[C@@H]1SC[C@@H]2NC(=O)N[C@@H]21
inactive
3. CC(C(O)c1ccccc1)N(C)CCOC(c1ccccc1)c1ccccc1 (stereo not given)
inactive

**Query** Each molecule tested received a call. Report the one for COc1ccc2c(c1)c(CC(=O)OC/C=C(\C)CC/C=C(\C)CCC=C(C)C)c(C)n2C(=O)c1ccc(Cl)cc1 .
**Result** inactive

**Query** Each molecule tested received a call. Report the one for CCO[C@H](Cc1ccc(OCCc2ccc(OS(C)(=O)=O)cc2)cc1)C(=O)O .
**Result** inactive

**Query** Each molecule tested received a call. Report the one for CCCCN(CCCC)C(C(N)=O)c1ccc(OC)cc1 (stereo not given) .
**Result** inactive

**Query** Each molecule tested received a call. Report the one for CCn1ccc(NS(=O)(=O)c2ccc(N)cc2)nc1=O .
**Result** inactive

**Query** Each molecule tested received a call. Report the one for Cc1onc(-c2ccccc2)c1C(=O)Cl .
**Result** inactive

**Query** Each molecule tested received a call. Report the one for Oc1ccc(CCNCCCCCCNCCc2ccccc2)cc1O .
**Result** inactive

**Query** Each molecule tested received a call. Report the one for NS(=O)(=O)c1cc2c(cc1Cl)CN(C1CCCCC1)C2=O .
**Result** inactive

**Query** Each molecule tested received a call. Report the one for CC(C)NC(=O)c1ccc(C=O)cc1 .
**Result** inactive

**Query** Each molecule tested received a call. Report the one for Cc1ccc(C(C)OC(=O)C2(C)CCC(C(=O)O)C2(C)C)cc1 (stereo not given) .
**Result** inactive

**Query** Each molecule tested received a call. Report the one for Oc1ccccc1 .
**Result** inactive

----------
Test system: PA-1
Test: Primary qHTS to identify gynecologic anti-cancer compounds using libraries of approved drugs and bioactive compounds (AID 1345084); also: nearly all actives have a fitted effect of over 55% in size
Conditions: Gynecologic cancer cell panel viability, ATPlite luminescence, 48 h; series mostly up to 57.5 µM
Source text: National Center for Advancing Translational Sciences [NCATS] Assay Overview: Chemotherapeutic drug responses vary from cancer to cancer and from patient to patient. […] ATPlite is a luminescence based assay reliant on the conversion of a luciferase substrate to light in the presence of ATP. As a cytotoxic compound will suppress growth and decrease the number of cells, the concentration of ATP will decrease, and less light signal will be detected in the well. […]
Results filed as inconclusive are left out. Active and inactive are the calls of the source. The call rests on the fitted dose curve; in most records, active means well fitted cell-killing curve with a large enough effect; inconclusive means small, poorly fitted or top-dose-only effect, or effect the other way; inactive means flat fitted curve, though single readings scatter.
Pick one and only one: active, inactive

**Query** Each molecule tested received a call. Report the one for COc1c(N2C[C@@H]3CCCN[C@@H]3C2)c(F)cc2c(=O)c(C(=O)O)cn(C3CC3)c12 .
**Result** inactive

**Query** Each molecule tested received a call. Report the one for CC(C)NC(=O)c1ccc(C=O)cc1 .
**Result** inactive

**Query** Each molecule tested received a call. Report the one for CC(C)NCCCC1(C(N)=O)c2ccccc2-c2ccccc21 .
**Result** inactive

**Query** Each molecule tested received a call. Report the one for CC(C)(C)C(=O)OCOC(=O)C1N2C(=O)CC2S(=O)(=O)C1(C)C (centres undefined) .
**Result** inactive

**Query** Each molecule tested received a call. Report the one for CC(C)OP(=O)(CP(=O)(OC(C)C)OC(C)C)OC(C)C .
**Result** inactive

**Query** Each molecule tested received a call. Report the one for O=C(CCOCCOCCOCCOCCC(=O)Nc1c(I)cc(I)c(C(=O)O)c1I)Nc1c(I)cc(I)c(C(=O)O)c1I .
**Result** inactive

**Query** Each molecule tested received a call. Report the one for O=C(O)C1CCC1 .
**Result** inactive

**Query** Each molecule tested received a call. Report the one for Cc1ccc(C(=O)C(=O)O)cc1C .
**Result** inactive

**Query** Each molecule tested received a call. Report the one for CN1CC[C@H](c2c(O)cc(O)c3c(=O)cc(-c4ccccc4Cl)oc23)[C@H](O)C1 .
**Result** active

**Query** Each molecule tested received a call. Report the one for CCN1CCN(C(=O)N[C@@H](C(=O)N[C@@H]2C(=O)N3[C@@H]2SC(C)(C)[C@H]3C(=O)O)c2ccccc2)C(=O)C1=O .
**Result** inactive

**Query** Each molecule tested received a call. Report the one for C[C@@]12CCC[C@H]1[C@@H]1CC[C@H]3C[C@@H](O)CC[C@]3(C)[C@H]1CC2 .
**Result** inactive

**Query** Each molecule tested received a call. Report the one for CCOc1ccc(NS(=O)(=O)c2ccc(N)cc2)nn1 .
**Result** inactive

**Query** Each molecule tested received a call. Report the one for CCCCCCCC(=O)[O-].CCCCCCCC(=O)[O-].[Zn+2] .
**Result** inactive

**Query** Each molecule tested received a call. Report the one for O=c1[nH]c(=O)n([C@H]2O[C@H](CO)[C@@H](O)[C@@H]2O)cc1/C=C\Br .
**Result** inactive

**Query** Each molecule tested received a call. Report the one for Cn1cc(S(C)=O)c(=O)c2ccc(F)cc21 (centres undefined) .
**Result** inactive

**Query** Each molecule tested received a call. Report the one for CCCC(=O)O[C@]1(C(=O)COC(=O)CC)CC[C@H]2[C@@H]3CCC4=CC(=O)CC[C@]4(C)[C@H]3[C@@H](O)C[C@@]21C .
**Result** inactive

**Query** Each molecule tested received a call. Report the one for Cc1oc(-c2ccccc2)nc1CCC(=O)c1ccc(CC2SC(=O)NC2=O)cc1 (centres undefined) .
**Result** inactive

**Query** Each molecule tested received a call. Report the one for CCN(CC)CCN .
**Result** inactive

**Query** Each molecule tested received a call. Report the one for O=C1Nc2cc(Cl)ccc2Oc2ccccc21 .
**Result** inactive
